System: P. falciparum 3D7 growth, pLDH absorbance
test summary: blood-stage malaria parasite growth potency – strain 3D7, dose response (AID 2305)
# thresholds on IC50 define classes: lower (below 400 nM), middle (400 nM to below 900 nM), upper (900 nM or more)

{"compound": "CN1CCN(CC(O)CNC(=O)Nc2ccc(Cl)cc2)CC1 (centres undefined)", "classification": "lower"}
{"compound": "Cc1nc(-c2nc(NCCc3ccncc3)ncc2-c2ccsc2)sc1C", "classification": "lower"}
{"compound": "Cc1cc(-c2nc3ccc(CN4CCN(C)CC4)cc3[nH]2)nn1Cc1cc(Cl)ccc1OCc1ccccc1", "classification": "upper"}
{"compound": "Cn1cnc(CCNC(=O)c2cccc(-c3ccc(-c4nc5ccc(F)cc5[nH]4)cc3)c2)c1", "classification": "upper"}
{"compound": "CCCN(CCC)S(=O)(=O)c1ccc(C(=O)Nc2nc3ccc(-c4cc(=O)[nH]c(Nc5ccccc5Cl)n4)cc3[nH]2)cc1", "classification": "middle"}
{"compound": "COc1ccc(C(=O)CCC(=O)N(CCC2CCCN2C)Cc2ccc(-c3ccc(CNCCc4ccc(S(C)(=O)=O)cc4)cn3)cc2)cc1F (centres undefined)", "classification": "middle"}
{"compound": "CCCCn1c(Sc2ccc(C#N)c([N+](=O)[O-])c2)nnc1-c1cccc(Cl)c1", "classification": "middle"}
{"compound": "Cc1ccc(NC(=O)c2ccc(N3CCC(c4ccccc4C)CC3)nc2)cc1", "classification": "upper"}
